# TARGET UNDER TEST: KRAS G13C (Homo sapiens, UniProt P01116+P62937, G13C)
# Sequence (P01116 1-169 isoform P01116-2 G13C): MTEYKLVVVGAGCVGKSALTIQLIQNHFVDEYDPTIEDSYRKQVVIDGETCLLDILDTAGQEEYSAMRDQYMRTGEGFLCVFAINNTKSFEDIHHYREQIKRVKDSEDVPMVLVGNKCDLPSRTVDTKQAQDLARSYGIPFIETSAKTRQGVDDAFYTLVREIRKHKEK
# Sequence (P62937 whole entry): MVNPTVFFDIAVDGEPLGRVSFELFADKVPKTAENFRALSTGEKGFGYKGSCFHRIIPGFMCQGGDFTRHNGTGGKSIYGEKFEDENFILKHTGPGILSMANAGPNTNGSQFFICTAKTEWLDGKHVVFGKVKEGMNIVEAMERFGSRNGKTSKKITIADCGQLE
# ASSAY PROCEDURE: Disruption of BRAF RBD interaction with Ras (FRET / MOA assay, with Cyclophilin A)
# Type: biochemical
# MEASUREMENT CONDITIONS: read-out: KRAS G13C FRET data, IC50
MEASURE: IC50

# annotated cases, reported IC50 shown
{"columns": ["COMPOUND", "TARGET UNDER TEST", "IC50"],
 "data": [
  ["CCn1c(-c2cccnc2[C@H](C)OC)c2c3cc(ccc31)-c1cc(O)cc(c1)C[C@H](NC(=O)[C@H](C(C)C)N(C)C(=O)C1CC13CCNCC3)C(=O)N1CCC[C@H](N1)C(=O)OCC(C)(C)C2 (some centres unmarked) [Example A151]", "KRAS G13C (Homo sapiens, UniProt P01116+P62937, G13C)", "10 to 100 nM"],
  ["CCn1c(-c2cccnc2[C@H](C)OC)c2c3cc(ccc31)-c1csc(n1)C[C@H](NC(=O)[C@H](C(C)C)N(C)C(=O)N1[C@H](C)CN(C)C[C@H]1C)C(=O)N1CCC[C@H](N1)C(=O)OCC(C)(C)C2 [Example A610]", "KRAS G13C (Homo sapiens, UniProt P01116+P62937, G13C)", "100 to 1000 nM"],
  ["CCn1c(-c2cccnc2[C@H](C)OC)c2c3cc(ccc31)-c1csc(n1)C[C@H](NC(=O)[C@H](C(C)C)N(C)C(=O)N1CC(CO)C1)C(=O)N1CCC[C@H](N1)C(=O)OCC(C)(C)C2 (atropisomer, axis not shown) [Example A356]", "KRAS G13C (Homo sapiens, UniProt P01116+P62937, G13C)", "100 to 1000 nM"],
  ["CCn1c(-c2cccnc2[C@H](C)OC)c2c3cc(ccc31)-c1csc(n1)C[C@H](NC(=O)[C@H](C(C)C)N(C)C(=O)N1C[C@@H]3CN(C)CC[C@@H]31)C(=O)N1CCC[C@H](N1)C(=O)OCC(C)(C)C2 [Example A481]", "KRAS G13C (Homo sapiens, UniProt P01116+P62937, G13C)", "1000 to 10000 nM"],
  ["CCn1c(-c2cccnc2[C@H](C)OC)c2c3cc(ccc31)-c1csc(n1)C[C@H](NC(=O)[C@H](C(C)C)N(C)C(=O)[C@@H]1C[C@@H]1C)C(=O)N1CCC[C@H](N1)C(=O)OCC(C)(C)C2 [Example A239]", "KRAS G13C (Homo sapiens, UniProt P01116+P62937, G13C)", "1000 to 10000 nM"],
  ["CCn1c(-c2cccnc2[C@H](C)OC)c2c3cc(ccc31)-c1cc(O)cc(c1)C[C@H](NC(=O)[C@H](C(C)C)N(C)C(=O)[C@H]1CCC[C@H]1N)C(=O)N1CCC[C@H](N1)C(=O)OCC(C)(C)C2 (atropisomer, axis not shown) [Example A131]", "KRAS G13C (Homo sapiens, UniProt P01116+P62937, G13C)", "10 to 100 nM"],
  ["CCn1c(-c2cc(N3CCN(C)CC3)cnc2[C@H](C)OC)c2c3cc(ccc31)-c1csc(n1)C[C@H](NC(=O)[C@H](C(C)C)N(C)C(=O)N1CC(N(C)C)C1)C(=O)N1CCC[C@H](N1)C(=O)OCC(C)(C)C2 (atropisomer, axis not shown) [Example A477]", "KRAS G13C (Homo sapiens, UniProt P01116+P62937, G13C)", "100 to 1000 nM"]
]}

Then this compound:
State the recorded IC50 for this entry: CCn1c(-c2cccnc2[C@H](C)OC)c2c3cc(ccc31)-c1csc(n1)C[C@H](NC(=O)[C@H](C(C)C)N(C)C(=O)N1CC3(CC3)C1)C(=O)N1CCC[C@H](N1)C(=O)OCC(C)(C)C2 (atropisomer, axis not shown) [Example A523] 100 to 1000 nM
